TARGET OR TEST SYSTEM: DCLK3 (human) (UniProt Q9C098)
Sequence (Q9C098 whole entry, looked up): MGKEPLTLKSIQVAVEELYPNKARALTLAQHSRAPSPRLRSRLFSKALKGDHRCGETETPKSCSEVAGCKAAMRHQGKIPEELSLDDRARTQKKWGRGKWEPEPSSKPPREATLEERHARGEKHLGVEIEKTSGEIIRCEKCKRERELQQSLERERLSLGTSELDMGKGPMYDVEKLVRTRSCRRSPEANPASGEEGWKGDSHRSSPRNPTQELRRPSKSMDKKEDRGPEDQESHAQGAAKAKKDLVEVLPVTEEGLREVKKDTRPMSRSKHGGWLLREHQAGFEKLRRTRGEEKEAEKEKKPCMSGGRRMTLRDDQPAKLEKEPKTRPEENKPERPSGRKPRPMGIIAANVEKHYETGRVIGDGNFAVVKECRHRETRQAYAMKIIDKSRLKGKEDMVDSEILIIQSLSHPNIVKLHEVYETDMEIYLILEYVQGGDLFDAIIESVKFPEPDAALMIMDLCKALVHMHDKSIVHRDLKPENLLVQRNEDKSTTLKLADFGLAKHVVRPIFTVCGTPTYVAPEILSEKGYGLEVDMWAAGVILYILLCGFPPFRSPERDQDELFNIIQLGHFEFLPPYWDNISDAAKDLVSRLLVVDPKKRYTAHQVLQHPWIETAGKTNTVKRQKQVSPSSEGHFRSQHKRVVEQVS
ASSAY NAME: KINOMEscan competition binding
TEST CONTEXT: compound 10.0 µM
OUTCOME MEASURE: kinase still bound, per cent of control (%)

COc1ccc(CNC(=O)Nc2ncc([N+](=O)[O-])s2)cc1 = 66

A = Cn1cc(C2=C(c3ccc(Cl)cc3Cl)C(=O)NC2=O)c2ccccc21
B = Cc1cnc(-c2cnc(NCCNc3ccc(C#N)cn3)nc2-c2ccc(Cl)cc2Cl)[nH]1
C = O=C1Nc2cc(Br)ccc2/C1=C1/Nc2ccccc2/C1=N\O
Challenge: Hello, I need these entries ordered by kinase still bound, per cent of control, highest reading first. Thanks! Put the labels in the requested order and write them down.
Response given: A, B, C
